- Test system: wheat germ agglutinin (Triticum aestivum), Alexa647-labelled
- Experiment Notes: wheat germ agglutinin binders on compound microarrays, profiling panel, artefact control for SMM control-protein annotation, biochemical, small-molecule microarray, 635/667 nm fluorescence (AID 1140);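 further: score merges 667 nm feature emission with signal to noise over triplicate slides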
- Test Context: WGA-A647 binding, 635 nm fluorescence, higher = more signal
Entries and their composite z-score
Respond with the number and no other words.

Use the examples below as a reference point.
>  <Compound>
O=C1O[C@H](c2ccccc2)[C@H](c2ccccc2)N2[C@H]1[C@@H](C(=O)NC[C@H](O)c1ccccc1)[C@]1(C(=O)Nc3ccc(C#CC4=CCCCC4)cc31)[C@H]2c1ccc(OCCO)cc1

>  <composite z-score>
0.944

$$$$
>  <Compound>
O=C(NCc1ccccc1)c1ccc(Br)cc1[N+](=O)[O-]

>  <composite z-score>
0.352

$$$$
>  <Compound>
CC(C)[Si](OCCCNS(=O)(=O)c1ccc(Br)cc1)(C(C)C)C(C)C

>  <composite z-score>
0.622

$$$$

Quickly give me recorded composite z-score for C[C@@H]1CC[C@H]2C(=O)N3CCC[C@H]3C(=O)N2[C@H]1c1ccc(Br)cc1 -0.169

Quickly give me recorded composite z-score for O=C1O[C@@H](c2ccccc2)[C@@H](c2ccccc2)N2[C@@H](c3ccc(O)cc3)[C@]3(C(=O)Nc4ccccc43)[C@@H](C(=O)N3CCN(c4ncccn4)CC3)[C@H]12 -0.387

Quickly give me recorded composite z-score for COc1cc2c(cc1OC)CN(C(=O)[C@H]1[C@@H]3C(=O)O[C@@H](c4ccccc4)[C@@H](c4ccccc4)N3[C@@H](c3ccc(O)cc3)[C@]13C(=O)Nc1ccc(C#CC4(O)CCCCCC4)cc13)CC2 1.31

Quickly give me recorded composite z-score for C[C@@H]1CC[C@H]2C(=O)N3[C@@H](CC[C@@H](C)[C@@H]3c3cccc(N4CCOCC4)c3)C(=O)N2[C@H]1c1cccc(Br)c1 1.04

Quickly give me recorded composite z-score for CCOC(=O)C1=CCC(c2cccc3ccccc23)N(S(=O)(=O)c2ccc(C)cc2)C1 (stereo not given) 0.697

Quickly give me recorded composite z-score for CC[C@@H]1C=C(C(=O)O)[C@H](c2ccccc2)N1S(=O)(=O)c1ccc([N+](=O)[O-])cc1 1.01

---

- Assayed Target: Carbonic anhydrase 2 (Homo sapiens) (UniProt P00918)
- Experiment Notes: CAII small-molecule binders, profiling panel, biochemical, small-molecule microarray, Alexa647-labelled CAII (AID 1122)
- Test Context: CAII-A647 binding fluorescence, higher = more signal
Observed Property: composite z-score
Respond with the number and no other words.

Use the examples below as a reference point.
>  <Smi>
CCOC(=O)C[C@H]1[C@H](OC(=O)c2cc3ccccc3oc2=O)[C@@H](NC(=O)C2CCCCC2)c2cc(OCCCO)ccc2N1C(=O)c1ccc2ccccc2n1

>  <composite z-score>
0.0744

$$$$
>  <Smi>
CCOC(=O)C[C@H]1[C@H](OC(=O)Cc2ccc3c(c2)OCO3)[C@@H](NC(=O)CC(C)C)c2cc(OCCCO)ccc2N1C(=O)c1ccccc1

>  <composite z-score>
0.186

$$$$
>  <Smi>
C=C(COC)/C(=C/C[C@H](OC(C)=O)c1ccc(OCCO)cc1)c1cnc2ccccc2c1

>  <composite z-score>
0.797

$$$$

Now take the following molecule into account.
Quickly give me recorded composite z-score for CC(C)[Si](OCCCNS(=O)(=O)c1ccc(Br)cc1)(C(C)C)C(C)C 0.0774

---

- Experiment Notes: binders of probe aFSTL3 on microarray, primary screen, stem cell growth factor project, biochemical, small-molecule microarray, fluorescence 635/667 (AID 1064);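 further: measures binding of the biotinylated anti-FSTL3 antibody to printed compounds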
- Test Context: higher = more signal
Entries and their composite z-score

Use the examples below as a reference point.
>  <Compound>
CCCC=C(CCC)[C@@H](NS(=O)(=O)c1ccc(C(F)(F)F)cc1)c1ccc(-c2ccccc2)cc1

>  <Observed Property>
composite z-score

>  <Result Value>
0.357

$$$$
>  <Compound>
C[C@H]1C2[C@H](Cc3ccccc3)NC(=O)[C@]23C(=O)N[C@H](Cc2ccccc2)C(=O)N[C@@H](Cc2ccccc2)C(=O)NC/C=C\C/C=C/C3[C@@H]2O[C@]12C (stereo not given in full)

>  <Observed Property>
composite z-score

>  <Result Value>
-0.446

$$$$
>  <Compound>
COCCOC(=O)N1C(=O)[C@@]2(c3cc(C#CCCO)ccc31)[C@H](c1ccc(OCCO)cc1)N1[C@H](c3ccccc3)[C@H](c3ccccc3)OC(=O)[C@H]1[C@@H]2C(=O)NC[C@H](O)c1ccccc1

>  <Observed Property>
composite z-score

>  <Result Value>
-0.484

$$$$
>  <Compound>
O=C1C2C=CC(C(O)C#Cc3ccccc3)N(Nc3ccccc3)C2C(=O)N1c1ccccc1 (stereo not given)

>  <Observed Property>
composite z-score

>  <Result Value>
0.532

$$$$
>  <Compound>
COC(=O)C1=CC(c2ccc(CO)cc2)=CC(C2CC2)N(Cc2sc3ccccc3c2Cl)C=C1C(=O)OC (stereo not given)

>  <Observed Property>
composite z-score

>  <Result Value>
0.541

$$$$
>  <Compound>
CO[C@]12C=C(Br)[C@@H](C[C@@H]1c1ccccc1)[C@@]1(CO1)C2=O

>  <Observed Property>
composite z-score

>  <Result Value>
-0.407

$$$$
>  <Compound>
C=CCNC(=O)[C@H]1[C@@H]2C(=O)O[C@@H](c3ccccc3)[C@@H](c3ccccc3)N2[C@@H](c2ccc(O)cc2)[C@]12C(=O)Nc1ccc(C#CCNC(N)=O)cc12

>  <Observed Property>
composite z-score

>  <Result Value>
0.587

$$$$
>  <Compound>
C=CCc1cccc([C@H]2N[C@H](C(=O)O)CC[C@@H]2C)c1

>  <Observed Property>
composite z-score

>  <Result Value>
-0.746

$$$$
>  <Compound>
COCCOC(=O)N1C(=O)[C@@]2(c3cc(C#CC4=CCCCC4)ccc31)[C@H](C(=O)NC[C@H](O)c1ccccc1)[C@H]1C(=O)O[C@H](c3ccccc3)[C@H](c3ccccc3)N1[C@@H]2c1ccccc1OCCO

>  <Observed Property>
composite z-score

>  <Result Value>
0.462

$$$$
>  <Compound>
NC(=O)NCC#Cc1ccc2c(c1)[C@]1(C(=O)N2)[C@H](c2ccccc2OCCO)N2[C@H](c3ccccc3)[C@H](c3ccccc3)OC(=O)[C@H]2[C@@H]1C(=O)N1CCN(c2ncccn2)CC1

>  <Observed Property>
composite z-score

>  <Result Value>
0.533

$$$$

Quickly give me recorded composite z-score for [N-]=[N+]=NCc1ccccc1C[C@]1(C(N)=O)N=C(c2ccc(OCCCO)cc2)O[C@H]1c1ccccc1CN=[N+]=[N-] 1.15

Quickly give me recorded composite z-score for CN1C2C=C(c3ccc(CO)cc3)C(C3C(=O)N(C(N)=O)C(=O)C32)C1c1cccs1 (stereo not given) 0.631

Quickly give me recorded composite z-score for CCCNC(=O)[C@@H]1c2ccccc2C(=O)N(C2CCCCC2)[C@H]1c1ccc(CO)cc1 -0.162

Quickly give me recorded composite z-score for Cc1ccc(S[C@]2(C(=O)O)CC(=O)N(Cc3cc(C(F)(F)F)cc(C(F)(F)F)c3)[C@@H]2c2ccc(CO)cc2I)cc1 0.793

Quickly give me recorded composite z-score for C=CC[C@@]1(C(=O)N2CCOCC2)N=C(c2ccc(OCCCO)cc2)O[C@@H]1c1ccccc1 -0.487

---

- Assayed Target: Follistatin-related protein 3 (Homo sapiens)
- Experiment Notes: FSTL3 binders on small-molecule microarrays, primary screen, biochemical, small-molecule microarray, 635 nm fluorescence (AID 1105);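 further: score merges emission near 667 nm and signal to noise per printed spot across three slides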
- Test Context: FSTL3 binding, higher = more signal
Entries and their composite z-score
Respond with the number and no other words.

Use the examples below as a reference point.
>  <Compound>
O=C(N1CCCCC1)[C@@]1(CCS(=O)(=O)c2ccccc2)N=C(c2ccc(OCCCO)cc2)O[C@H]1c1ccccc1

>  <Assayed Target>
Follistatin-related protein 3 (Homo sapiens)

>  <Result Value>
0.598

$$$$
>  <Compound>
C=CC[C@]1(C(N)=O)N=C(c2ccc(OCCCO)cc2)O[C@H]1c1ccccc1CN=[N+]=[N-]

>  <Assayed Target>
Follistatin-related protein 3 (Homo sapiens)

>  <Result Value>
-0.325

$$$$

Quickly give me recorded composite z-score for CN1C2C=C(c3ccc(CO)cc3)C(C3C(=O)N(C(N)=O)C(=O)C32)C1c1cccs1 (centres undefined) -0.623

Quickly give me recorded composite z-score for CCC(=O)[C@]12O[C@@]3([C@@H]4C(=O)OCC[C@@H]41)N(Cc1ccccc1)C(C)=C(C(=O)OC)[C@@H](c1ccccc1)N3C2=O -0.782

---

- Experiment Notes: splicing luciferase reporter signal modulators, primary screen, spliceosome inhibition project, cell-based, HEK293, splice +/- reporter (AID 1101);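 further: HEK293 cells carrying a splicing-competent luciferase reporter gene; test concentration not given here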
- Test Context: luminescence, 24 h, higher = more signal, called active from +8 up or from −8 down
Observed Property: z-score
Respond with the number and no other words.

Use the examples below as a reference point.
>  <Compound>
COc1cccc([C@H]2N[C@H](C(=O)O)CC[C@@H]2C)c1

>  <z-score>
-1.94

$$$$
>  <Compound>
COC(=O)[C@@]1(Cc2ccccc2CN=[N+]=[N-])N=C(c2ccc(OCCCO)cc2)O[C@H]1c1ccccc1N=[N+]=[N-]

>  <z-score>
-0.298

$$$$
>  <Compound>
CO[C@H]1COC(=O)CC=C[C@H](C)COC(=O)[C@@H](OCc2ccccc2)C=C[C@@H]1C

>  <z-score>
-1.71

$$$$
>  <Compound>
CCOC(=O)[C@H]1C/C=C/C[C@H](C(=O)OCC)C(=O)O[C@H]2[C@@H](OC)O[C@H](CO)[C@@H](OC(=O)Nc3ccc(Br)cc3)[C@@H]2OC1=O

>  <z-score>
-3.54

$$$$
>  <Compound>
COc1ccc([Si](C)(C)[C@H]2[C@H](CC(=O)N(CCO)Cc3ccccc3)O[C@@]3(C(=O)N(C)c4ccccc43)[C@@H]2C)cc1

>  <z-score>
-1.44

$$$$
>  <Compound>
COC(=O)C(CC#Cc1ccc2c(c1)[C@]1(C(=O)N2)[C@H](C(=O)N2CCCCCCC2)[C@H]2C(=O)O[C@H](c3ccccc3)[C@H](c3ccccc3)N2[C@@H]1c1ccc(O)cc1)C(=O)OC

>  <z-score>
-0.751

$$$$

Quickly give me recorded z-score for O=C(O)[C@@H]1Cc2c([nH]c3ccccc23)[C@@H](c2ccccc2)N1 -0.333

Quickly give me recorded z-score for O=C1NC(=O)C2C1C=CC(C(O)C=Cc1ccc([N+](=O)[O-])cc1)N2Nc1ccccn1 (stereo unspecified) 1.5

Quickly give me recorded z-score for O=C/C=C/c1ccccc1Cl 0.0402

Quickly give me recorded z-score for Cc1ccc(S[C@]2(C(=O)NC(C)C)CC(=O)N(C3Cc4ccccc4C3)[C@@H]2c2ccc(CO)cc2)cc1 -1.15

Quickly give me recorded z-score for O=C1O[C@@H](c2ccccc2)[C@@H](c2ccccc2)N2[C@@H](c3ccccc3OCCO)[C@]3(C(=O)Nc4ccc(C#CC5=CCCCC5)cc43)[C@@H](C(=O)O)[C@H]12 -2.47

Quickly give me recorded z-score for CO[C@H]1COC(=O)[C@H](C)NC(=O)CC=C[C@@H](C)[C@H](NS(=O)(=O)c2ccc(C)cc2)COC(=O)[C@@H](OCc2ccccc2)C=C[C@@H]1C -0.138

Data provenance: PubChem BioAssay
